- target: Muscarinic acetylcholine receptor M2 (Homo sapiens)
- testDetails: Agonist activity at human recombinant muscarinic M2 receptor co-expressed with Galphaqi5-HA in African green monkey COS7 cells assessed as IP accumulation after 2 hrs in presence of myo-[3H]inositol by liquid scintillation counting method relative to carbachol
- Format: functional
The reader will find reported Emax values listed item by item below.
Dear colleague, please return just the value in %, with no unit written.

Known Emax results, listed for orientation:
{"columns": ["compound", "Emax (%)"],
 "data": [
  ["C[N+](C)(C)CCCc1ccc2ccoc2c1", 12],
  ["C[N+](C)(C)CCc1ccc2ccoc2c1", -14],
  ["C[N+](C)(C)CCc1ccc2c(c1)OCC2", 62]
]}

Exercise: For the compound `COc1ccccc1CC[N+](C)(C)C` , what Emax is on record?
Solution: 21

Exercise: For the compound `COc1ccc(F)c(CC[N+](C)(C)C)c1` , what Emax is on record?
Solution: 44

Exercise: For the compound C[N+](C)(C)C1CCc2ccc3ccoc3c2C1 (stereo not drawn) , what Emax is on record?
Solution: -8.3

Exercise: For the compound `C[N+](C)(C)CC#CCOC1=NOCC1` , what Emax is on record?
Solution: 125

Exercise: For the compound `COc1ccccc1C[N+](C)(C)C` , what Emax is on record?
Solution: 51

---

- target: Muscarinic acetylcholine receptor M1 (Homo sapiens)
- testDetails: Displacement of [3H]N-methyl-scopolamine bromide from human recombinant muscarinic M1 receptor expressed in HEK293T cell membranes after 1 hr by liquid scintillation counting method
- Format: cell-based, HEK-293T
The reader will find reported Ki values listed item by item below.
Please state the number and follow it with the unit.

{"columns": ["compound", "Ki"],
 "data": [
  ["COc1cccc(C#CC[N+](C)(C)C)c1", "20 µM"],
  ["COc1cccc2c1CC(N(C)C)CC2 (centres undefined)", "2 µM"],
  ["C[N+](C)(C)CCc1cccc(O)c1", "20 µM"]
]}

Now look at this one.
Exercise: For the compound CN1CCCC(OCc2cccnc2)C1 (centres undefined) , what Ki is on record?
Solution: 20 µM

---

- target: Muscarinic acetylcholine receptor M2 (Homo sapiens, UniProt P08172)
- Sequence (P08172 whole entry): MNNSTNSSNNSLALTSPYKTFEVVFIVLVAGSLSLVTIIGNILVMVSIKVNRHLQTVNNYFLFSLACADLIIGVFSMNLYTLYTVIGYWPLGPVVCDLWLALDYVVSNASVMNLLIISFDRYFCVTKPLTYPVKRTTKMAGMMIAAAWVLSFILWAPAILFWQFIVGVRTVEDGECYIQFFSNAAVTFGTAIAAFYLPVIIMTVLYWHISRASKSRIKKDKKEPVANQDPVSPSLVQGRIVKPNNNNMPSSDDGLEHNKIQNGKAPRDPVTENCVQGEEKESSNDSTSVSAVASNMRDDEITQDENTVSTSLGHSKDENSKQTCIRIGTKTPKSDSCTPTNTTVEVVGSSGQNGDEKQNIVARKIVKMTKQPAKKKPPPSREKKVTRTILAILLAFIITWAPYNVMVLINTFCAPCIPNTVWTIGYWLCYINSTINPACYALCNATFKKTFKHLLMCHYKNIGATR
- testDetails: Displacement of [3H]N-methyl-scopolamine bromide from human recombinant muscarinic M2 receptor expressed in HEK293T cell membranes after 1 hr by liquid scintillation counting method
- Parameters: species or system HEK-293T
The reader will find reported Ki values listed item by item below.
Dear colleague, please return just the value in µM, with no unit written.

{"columns": ["molecule", "target", "unitSpec", "Ki"],
 "data": [
  ["COc1cccc(C(=O)C[N+](C)(C)C)c1", "Muscarinic acetylcholine receptor M2 (Homo sapiens, UniProt P08172)", "µM", 2.4],
  ["COc1cccc2c1CCC([N+](C)(C)C)C2 (stereo unspecified)", "Muscarinic acetylcholine receptor M2 (Homo sapiens, UniProt P08172)", "µM", 4.4],
  ["COc1cccc(C(O)C[N+](C)(C)C)c1 (stereo unspecified)", "Muscarinic acetylcholine receptor M2 (Homo sapiens, UniProt P08172)", "µM", 29],
  ["COc1cccc(CCC[N+](C)(C)C)c1", "Muscarinic acetylcholine receptor M2 (Homo sapiens, UniProt P08172)", "µM", 0.63],
  ["c1cncc(COCC2CCNC2)c1 (stereo unspecified)", "Muscarinic acetylcholine receptor M2 (Homo sapiens, UniProt P08172)", "µM", 11]
]}

Exercise: For the molecule C[N+](C)(C)C1CCc2cccc(O)c2C1 (stereo unspecified) , what Ki is on record?
Solution: 4.2

Exercise: For the molecule CN1CCC(COCc2cccnc2)C1 (stereo unspecified) , what Ki is on record?
Solution: 39

Exercise: For the molecule C[N+]1(C)CCC(OCc2nccs2)C1 (stereo unspecified) , what Ki is on record?
Solution: 10

Exercise: For the molecule COc1cccc2c1CC(N(C)C)CC2 (stereo unspecified) , what Ki is on record?
Solution: 1.2

Exercise: For the molecule c1cncc(COC2CCCNC2)c1 (stereo unspecified) , what Ki is on record?
Solution: 17

Exercise: For the molecule `C[N+](C)(C)CCc1ccc2ccoc2c1` , what Ki is on record?
Solution: 0.14

Exercise: For the molecule C[N+](C)(C)C1CCc2ccc3ccoc3c2C1 (stereo unspecified) , what Ki is on record?
Solution: 0.79

Exercise: For the molecule `C[N+](C)(C)CC#CCOC1=NOCC1` , what Ki is on record?
Solution: 0.0049

Exercise: For the molecule COc1cccc2c1CC([N+](C)(C)C)CC2 (stereo unspecified) , what Ki is on record?
Solution: 0.93

Exercise: For the molecule COc1cccc2c1CC(C[N+](C)(C)C)CC2 (stereo unspecified) , what Ki is on record?
Solution: 1.3

Exercise: For the molecule `COc1cccc(/C=C/C[N+](C)(C)C)c1` , what Ki is on record?
Solution: 22

Exercise: For the molecule `C[N+](C)(C)CCc1ccc2c(c1)OCC2` , what Ki is on record?
Solution: 13

Exercise: For the molecule `CCOc1cccc(CC[N+](C)(C)C)c1` , what Ki is on record?
Solution: 27

Exercise: For the molecule `COc1ccccc1CC[N+](C)(C)C` , what Ki is on record?
Solution: 5.7

---

- target: Muscarinic acetylcholine receptor M1 (Homo sapiens)
- testDetails: Displacement of [3H]N-methyl-scopolamine bromide from human recombinant muscarinic M1 receptor expressed in HEK293T cell membranes after 1 hr by liquid scintillation counting method
- Assay type: cell-based, HEK-293T
endpoint: pKi
Interpret pKi as the negative base-10 log of the concentration measured in mol/L.

Exercise: Please state recorded pKi (tested on Muscarinic acetylcholine receptor M1 (Homo sapiens)) of `CNCCc1cccc(OC)c1`
Solution: 6.13

Exercise: Please state recorded pKi (tested on Muscarinic acetylcholine receptor M1 (Homo sapiens)) of `COc1cccc2c1CC[N+](C)(C)C2`
Solution: 4.85

Exercise: Please state recorded pKi (tested on Muscarinic acetylcholine receptor M1 (Homo sapiens)) of C[N+](C)(C)C1CCc2ccc3ccoc3c2C1 (stereo not drawn)
Solution: 6.42

---

- target: Muscarinic acetylcholine receptor M1 (Homo sapiens, UniProt P11229)
- Sequence (P11229 whole entry): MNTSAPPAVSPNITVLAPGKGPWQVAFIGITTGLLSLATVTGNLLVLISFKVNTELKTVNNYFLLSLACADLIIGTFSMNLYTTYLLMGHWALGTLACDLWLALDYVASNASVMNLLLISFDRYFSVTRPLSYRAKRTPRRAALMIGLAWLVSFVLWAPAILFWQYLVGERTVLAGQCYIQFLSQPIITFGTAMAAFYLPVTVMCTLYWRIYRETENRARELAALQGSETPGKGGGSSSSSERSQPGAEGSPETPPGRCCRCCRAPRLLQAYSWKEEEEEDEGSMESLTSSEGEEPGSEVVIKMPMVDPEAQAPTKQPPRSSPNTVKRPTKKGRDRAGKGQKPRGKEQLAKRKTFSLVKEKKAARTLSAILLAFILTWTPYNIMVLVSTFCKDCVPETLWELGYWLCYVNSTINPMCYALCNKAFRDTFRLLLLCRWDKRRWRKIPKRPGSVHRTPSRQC
- testDetails: Displacement of [3H]N-methyl-scopolamine bromide from human recombinant muscarinic M1 receptor expressed in HEK293T cell membranes after 1 hr by liquid scintillation counting method
- Type: cell-based, HEK-293T
# note: exactly 20 µM is not below, so it is Not fulfilled; use Fulfilled for Ki strictly under it

Solved cases below.
{"columns": ["compound", "target", "assignedCategory"],
 "data": [
  ["COc1cccc(/C=C/C[N+](C)(C)C)c1", "Muscarinic acetylcholine receptor M1 (Homo sapiens, UniProt P11229)", "Fulfilled"],
  ["CCOc1cccc(CC[N+](C)(C)C)c1", "Muscarinic acetylcholine receptor M1 (Homo sapiens, UniProt P11229)", "Not fulfilled"],
  ["c1cncc(COCC2CCNC2)c1 (stereo not given)", "Muscarinic acetylcholine receptor M1 (Homo sapiens, UniProt P11229)", "Fulfilled"]
]}

Exercise: Report whether reported Ki is lower than 20 µM (strictly) for `C[N+](C)(C)CC#CCOC1=NOCC1`
Solution: Fulfilled

Exercise: Report whether reported Ki is lower than 20 µM (strictly) for `COc1ccccc1C[N+](C)(C)C`
Solution: Not fulfilled
